measured on: GST-Hu-p50 (Homo sapiens, UniProt P19838 7-356)
Sequence (P19838 7-356): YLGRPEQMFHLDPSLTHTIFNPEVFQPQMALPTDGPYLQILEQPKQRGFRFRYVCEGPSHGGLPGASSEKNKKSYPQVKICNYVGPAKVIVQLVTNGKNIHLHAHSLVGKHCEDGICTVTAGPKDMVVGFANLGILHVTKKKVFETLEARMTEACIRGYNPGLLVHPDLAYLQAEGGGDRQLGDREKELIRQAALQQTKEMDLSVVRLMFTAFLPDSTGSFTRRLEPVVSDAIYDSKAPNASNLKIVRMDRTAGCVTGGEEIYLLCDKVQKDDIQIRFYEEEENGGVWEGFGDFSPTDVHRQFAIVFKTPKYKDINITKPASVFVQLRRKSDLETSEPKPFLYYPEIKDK
test details: protein-binding microarray (PBM); PBM: ~300 nM protein, 6 mM HEPES pH 7.8, 80 mM KCl, 0.5 mM EDTA, 0.5 mM EGTA, 6% glycerol, 35 ng/ul poly-dIdC, 1% milk, 1 h, room temperature; high values mean tight binding
assay context: dsDNA, one strand shown
quantity name: binding signal (z-score)
Only the number, expressed in z-score, is required.

>>> print(df.to_string())
                             residue_string                               measured_on  measured_result
0  CCGATTAACATCAGAAATATCCCTGATGTTAATCGGGTCTTGATTCGCTTGACGCTGCTG  GST-Hu-p50 (Homo sapiens, UniProt P19838 7-356)             3.17

Tested on GST-Hu-p50 (Homo sapiens, UniProt P19838 7-356), the item "CCGATTAACATCACGGAATTCCCTGATGTTAATCGGGTCTTGATTCGCTTGACGCTGCTG" showed binding signal equal to 4.62

Tested on GST-Hu-p50 (Homo sapiens, UniProt P19838 7-356), the item "CCGATTAACATCAAAAGTCCCCTTGATGTTAATCGGGTCTTGATTCGCTTGACGCTGCTG" showed binding signal equal to 7.27

Tested on GST-Hu-p50 (Homo sapiens, UniProt P19838 7-356), the item "CCGATTAACATCAGGGGTATTTATGATGTTAATCGGGTCTTGATTCGCTTGACGCTGCTG" showed binding signal equal to 5.56

Tested on GST-Hu-p50 (Homo sapiens, UniProt P19838 7-356), the item "CCGATTAACATCAAAGGGAATAGTGATGTTAATCGGGTCTTGATTCGCTTGACGCTGCTG" showed binding signal equal to 1.25

----------
measured on: GST-Aq-NF-kB (Amphimedon queenslandica, UniProt A9Y5G7 2-389)
Sequence: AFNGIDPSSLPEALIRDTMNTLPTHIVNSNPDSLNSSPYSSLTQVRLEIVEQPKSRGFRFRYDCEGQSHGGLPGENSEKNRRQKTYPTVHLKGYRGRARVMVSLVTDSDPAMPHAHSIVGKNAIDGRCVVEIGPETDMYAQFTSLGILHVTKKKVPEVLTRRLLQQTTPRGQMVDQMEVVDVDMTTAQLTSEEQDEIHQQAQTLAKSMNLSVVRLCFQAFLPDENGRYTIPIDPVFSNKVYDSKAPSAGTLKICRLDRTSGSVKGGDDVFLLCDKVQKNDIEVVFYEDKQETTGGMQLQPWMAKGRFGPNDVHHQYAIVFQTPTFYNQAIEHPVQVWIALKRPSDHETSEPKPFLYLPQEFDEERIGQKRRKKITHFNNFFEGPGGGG
test details: protein-binding microarray (PBM); PBM: ~300 nM protein, 6 mM HEPES pH 7.8, 80 mM KCl, 0.5 mM EDTA, 0.5 mM EGTA, 6% glycerol, 35 ng/ul poly-dIdC, 1% milk, 1 h, room temperature; high values mean tight binding
assay context: dsDNA, one strand shown
quantity name: binding signal (z-score)
Only the number, expressed in z-score, is required.

In [3]: df
Out[3]:
                             residue_string                               measured_on  unit_of_measure  measured_result
0  CCGATTAACATCAGAATGCCCCCTGATGTTAATCGGGTCTTGATTCGCTTGACGCTGCTG  GST-Aq-NF-kB (Amphimedon queenslandica, UniProt A9Y5G7 2-389)          z-score             5.26
1  CCGATTAACATCAACGGAAATTCTGATGTTAATCGGGTCTTGATTCGCTTGACGCTGCTG  GST-Aq-NF-kB (Amphimedon queenslandica, UniProt A9Y5G7 2-389)          z-score             1.24
2  CCGATTAACATCAGGAGTGCCCCTGATGTTAATCGGGTCTTGATTCGCTTGACGCTGCTG  GST-Aq-NF-kB (Amphimedon queenslandica, UniProt A9Y5G7 2-389)          z-score                5

Tested on GST-Aq-NF-kB (Amphimedon queenslandica, UniProt A9Y5G7 2-389), the item "CCGATTAACATCAAGGGGGGAGATGATGTTAATCGGGTCTTGATTCGCTTGACGCTGCTG" showed binding signal equal to 4.98

Tested on GST-Aq-NF-kB (Amphimedon queenslandica, UniProt A9Y5G7 2-389), the item "CCGATTAACATCAGGGGGATTACTGATGTTAATCGGGTCTTGATTCGCTTGACGCTGCTG" showed binding signal equal to 6.92

Tested on GST-Aq-NF-kB (Amphimedon queenslandica, UniProt A9Y5G7 2-389), the item "CCGATTAACATCAAGGAACTCCCTGATGTTAATCGGGTCTTGATTCGCTTGACGCTGCTG" showed binding signal equal to 5.06

Tested on GST-Aq-NF-kB (Amphimedon queenslandica, UniProt A9Y5G7 2-389), the item "CCGATTAACATCAGGGGACGGGATGATGTTAATCGGGTCTTGATTCGCTTGACGCTGCTG" showed binding signal equal to 3.92

Tested on GST-Aq-NF-kB (Amphimedon queenslandica, UniProt A9Y5G7 2-389), the item "CCGATTAACATCAGGGAAAATCATGATGTTAATCGGGTCTTGATTCGCTTGACGCTGCTG" showed binding signal equal to 5.1

Tested on GST-Aq-NF-kB (Amphimedon queenslandica, UniProt A9Y5G7 2-389), the item "CCGATTAACATCACGATTTCCCCTGATGTTAATCGGGTCTTGATTCGCTTGACGCTGCTG" showed binding signal equal to 5.72

----------
Reported binding signal values for a set of sequences
measured on: GST-Nv-NF-kB (Cys allele) (Nematostella vectensis, UniProt E5G601 2-411)
Sequence: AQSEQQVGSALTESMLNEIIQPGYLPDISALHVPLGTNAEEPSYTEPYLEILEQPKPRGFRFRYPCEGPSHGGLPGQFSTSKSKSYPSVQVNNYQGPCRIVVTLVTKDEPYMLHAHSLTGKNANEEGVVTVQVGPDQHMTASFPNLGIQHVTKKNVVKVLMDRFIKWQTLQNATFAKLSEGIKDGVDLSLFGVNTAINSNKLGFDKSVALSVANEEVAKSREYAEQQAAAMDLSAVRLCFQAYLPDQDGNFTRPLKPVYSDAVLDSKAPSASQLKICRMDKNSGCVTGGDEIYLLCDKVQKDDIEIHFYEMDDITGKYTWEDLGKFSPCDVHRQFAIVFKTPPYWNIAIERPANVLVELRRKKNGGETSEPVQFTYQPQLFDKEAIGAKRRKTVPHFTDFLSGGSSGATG
test details: protein-binding microarray (PBM); PBM: ~300 nM protein, 6 mM HEPES pH 7.8, 80 mM KCl, 0.5 mM EDTA, 0.5 mM EGTA, 6% glycerol, 35 ng/ul poly-dIdC, 1% milk, 1 h, room temperature; high values mean tight binding
assay context: dsDNA, one strand shown
Only the number, expressed in z-score, is required.

Sample records with binding signal:
>>> df
                             residue_string  unit_of_measure  measured_result
0  CCGATTAACATCAGGGAGTGCCCTGATGTTAATCGGGTCTTGATTCGCTTGACGCTGCTG          z-score             2.18
1  CCGATTAACATCAATTTTCCCCATGATGTTAATCGGGTCTTGATTCGCTTGACGCTGCTG          z-score             7.68
2  CCGATTAACATCAGGGGGAGTAATGATGTTAATCGGGTCTTGATTCGCTTGACGCTGCTG          z-score             4.54

Data point: "CCGATTAACATCAAAGAAGTCCCTGATGTTAATCGGGTCTTGATTCGCTTGACGCTGCTG" ; binding signal = 6.68

Data point: "CCGATTAACATCAGTTGTCCCGCTGATGTTAATCGGGTCTTGATTCGCTTGACGCTGCTG" ; binding signal = 1.89

----------
measured on: GST-Co-NF-kB (Capsaspora owczarzaki, UniProt F1ARL5 200-546)
Sequence: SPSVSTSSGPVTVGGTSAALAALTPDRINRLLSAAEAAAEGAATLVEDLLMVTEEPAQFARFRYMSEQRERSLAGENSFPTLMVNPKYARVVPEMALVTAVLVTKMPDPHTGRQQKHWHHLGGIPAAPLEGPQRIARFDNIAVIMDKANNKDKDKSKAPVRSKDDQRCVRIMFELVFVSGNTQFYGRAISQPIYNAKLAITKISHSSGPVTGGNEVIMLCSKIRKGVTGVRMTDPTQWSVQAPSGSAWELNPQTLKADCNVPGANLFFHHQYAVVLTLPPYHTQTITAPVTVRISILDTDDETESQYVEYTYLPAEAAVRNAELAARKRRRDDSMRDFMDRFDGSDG
test details: protein-binding microarray (PBM); PBM: ~300 nM protein, 6 mM HEPES pH 7.8, 80 mM KCl, 0.5 mM EDTA, 0.5 mM EGTA, 6% glycerol, 35 ng/ul poly-dIdC, 1% milk, 1 h, room temperature; Ap Aiptasia and Nv Nematostella (sea anemones) / Co Capsaspora / Aq Amphimedon (sponge) / Dm Drosophila / Hu human; RHD is the Rel homology domain; high values mean tight binding
assay context: dsDNA, one strand shown
quantity name: binding signal (z-score)
Only the number, expressed in z-score, is required.

Sample records with binding signal:
>>> df
                             residue_string  measured_result
0  CCGATTAACATCAAGGGGGGGAATGATGTTAATCGGGTCTTGATTCGCTTGACGCTGCTG             8.37
1  CCGATTAACATCAGGGAACAACCTGATGTTAATCGGGTCTTGATTCGCTTGACGCTGCTG             1.05

Data point: "CCGATTAACATCAAGCATTCCCCTGATGTTAATCGGGTCTTGATTCGCTTGACGCTGCTG" ; binding signal = 5.48

Data point: "CCGATTAACATCAAAAATCCCGATGATGTTAATCGGGTCTTGATTCGCTTGACGCTGCTG" ; binding signal = 1.91

Data point: "CCGATTAACATCAGGGGTTCCCATGATGTTAATCGGGTCTTGATTCGCTTGACGCTGCTG" ; binding signal = 1.64

Data point: "CCGATTAACATCAGGGGGATCTATGATGTTAATCGGGTCTTGATTCGCTTGACGCTGCTG" ; binding signal = 4.28

Data point: "CCGATTAACATCAAAGTTCCCCCTGATGTTAATCGGGTCTTGATTCGCTTGACGCTGCTG" ; binding signal = 11.3

Data point: "CCGATTAACATCAGGGAATTTCATGATGTTAATCGGGTCTTGATTCGCTTGACGCTGCTG" ; binding signal = 3.61

Data point: "CCGATTAACATCACGGGATTTACTGATGTTAATCGGGTCTTGATTCGCTTGACGCTGCTG" ; binding signal = 1.01
